test: folding stability dG unfold from trypsin proteolysis; higher = more stable
Please assign a class to every record based on measured folding stability dG unfold, with ranges 0: < 0.4 kcal/mol; 1: ≥ 0.4 kcal/mol and < 2 kcal/mol; 2: ≥ 2 kcal/mol

Example entries and their recorded answers appear below.
>>> answerlabel("SIKLSNGETIEYEPSPNKTYTIKHPDGRVVKILKVEREKDKYTVEIQFDDGSTKTIEIPPDKPEIIEKELLS [r1_66_JUSTAS]")
1
>>> answerlabel("GMTIVPPSSPVTDSSGNYEEYPDSQLYKDSSTGKPIIAFPMSPEELAAGDPAALARREALAKEYGLPEIEPS [r1_438_JUSTAS]")
0
>>> answerlabel("SAGGSAGGSAGGMTTVTLTLTTELEVKDPEGKLHRETVTVTVTVPVPPSTLTDTTDLVSSAGGSAGGSAGGS [r10_168_JUSTAS]")
1
>>> answerlabel("SAGGSAGGMIREIEVKVSPEFPSVEEVVEELKAKGYEVKRIEEDPETDEVIVYVVKKVPEEEHHSAGGSAGG [r6_604_JUSTAS]")
1
>>> answerlabel("SGVLVVTHPDGSVSTVPFTHPDGLVVDISAGVDAPLYATVVRLLPDGTPEPLPVFEFDSIEDVLEALAEASA [r9_942_TrMRF]")
1
>>> answerlabel("SAGGSAGGSVEIKSITTVTDPNSSANPTTITVKRDPAKGVLGEEVKAIAKALEEAGYPTTFGTSAGGSAGGS [r12_172_JUSTAS]")
0

-- ask For the record SAGGSAGGMKYTTTTETSVVEVRTDPKTGTTTRLERVTVTTVDSSGNVLSTTETLEERVDPVPASAGGSAGG [r6_181_JUSTAS] , report the class its folding stability dG unfold corresponds to.
-- reply 2

====

test: folding stability dG unfold from chymotrypsin proteolysis; higher = more stable
Cut-off 2 kcal/mol on folding stability dG unfold, inclusive. At or above means criterion met; below means criterion not met.

>>> answerlabel("SAGGSAGGSAGGSVSELPPISTKTTTTVTTTSDGTKVVYTTTTYSDGTTTTTSGPVPAASAGGSAGGSAGGS [r10_682_JUSTAS]")
"criterion not met"

-- ask API: above_or_equal(metric=folding stability dG unfold, cutoff=2 kcal/mol) for item SAGGSAGGMTPEELAEQKAEELREKLLAEGRPVSLKITKVTYEVDPKTGTVKVTSDIEIVYGPGSAGGSAGG [r6_454_JUSTAS]
-- reply criterion not met

-- ask API: above_or_equal(metric=folding stability dG unfold, cutoff=2 kcal/mol) for item SAGGEVKIEVVEKDGELYIVVTVRAPSVEELKKALEELGLEVEVVKIEEVKGEDGETYVVVVVKIKPSAGGS [r16_699_TrROS_Hall]
-- reply criterion met

-- ask API: above_or_equal(metric=folding stability dG unfold, cutoff=2 kcal/mol) for item SPYTVDSVSEDPSRNSTTVLNFPDGTTVTVTYDPSNPSLATVTVRPADGTTETTTVPLDEPFVVNLTVNPSA [r9_875_JUSTAS]
-- reply criterion not met

-- ask API: above_or_equal(metric=folding stability dG unfold, cutoff=2 kcal/mol) for item SAGGSAGGSKPDEVEVIEIKVPPGARVRLPDGSVVEIKPGDPNTTYRIVVDKKNKKITIEPLDSAGGSAGGS [r12_338_TrROS_Hall]
-- reply criterion not met

-- ask API: above_or_equal(metric=folding stability dG unfold, cutoff=2 kcal/mol) for item SAMIVTEKEDPATNTTLVTTTEIYPDSITVTTTTITKSGEILTESPSTTTIPLGSPLGPENKAKNIALSSAG [r14_930_JUSTAS]
-- reply criterion not met

-- ask API: above_or_equal(metric=folding stability dG unfold, cutoff=2 kcal/mol) for item SANEKVTVEVKIRFYFRFPKGQPFPFDITVPVTVEYDPNDPDKAKEEAKEKAIDEAIDEFRERFGYPLPSAG [r14_117_TrROS]
-- reply criterion met
